assay target: IDO1 (Homo sapiens)
Construct: HeLa cells in which IDO1 expression is induced by IFN-γ; endogenous in cells
Sequence (P14902 whole entry): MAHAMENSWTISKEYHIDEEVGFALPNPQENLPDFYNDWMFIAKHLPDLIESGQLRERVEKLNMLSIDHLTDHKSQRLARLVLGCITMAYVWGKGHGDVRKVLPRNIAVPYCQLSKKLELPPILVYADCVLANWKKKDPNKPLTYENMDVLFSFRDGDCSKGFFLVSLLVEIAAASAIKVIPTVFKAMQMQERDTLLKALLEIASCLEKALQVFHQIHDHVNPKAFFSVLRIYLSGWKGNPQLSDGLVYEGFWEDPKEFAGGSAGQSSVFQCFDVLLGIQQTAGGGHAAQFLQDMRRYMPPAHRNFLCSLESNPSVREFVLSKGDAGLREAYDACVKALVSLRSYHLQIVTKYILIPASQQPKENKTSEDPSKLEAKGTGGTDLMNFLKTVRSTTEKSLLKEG
experiment: Cellular IDO1 Inhibition Assay (L-kynurenine production by IFN-γ-stimulated HeLa cells)
condition description: IDO1 induced by IFN-γ, 250 μM L-tryptophan, 48 hours, L-kynurenine by Ehrlich's reagent, maximal concentration 40 μM
Text: Compounds can be screened for their ability to inhibit intracellular IDO1 activity, by measuring the production of L-kynurenine by HeLa cells in which IDO1 expression is induced by IFN-γ. Kynurenine levels can be determined by chemical conversion of L-kynurenine with Ehrlich's reagent (Yue et. al., J Med Chem 2009 Dec. 10; 52(23):7364-7). […]
pIC50: −log10 of the molar value.
value type: pIC50

Looking for the measured pIC50 of Clc1cc(Cl)cc(Nc2cn[nH]n2)c1 [Compound I-16] , can you help? 6.00 to 7.00

Looking for the measured pIC50 of COCc1cc(Cl)ccc1Nc1cnn[nH]1 [Compound I-4] , can you help? > 7.00

Looking for the measured pIC50 of Cc1cc(F)ccc1Nc1c[nH]nn1 [Compound I-36] , can you help? > 7.00

Looking for the measured pIC50 of CNS(=O)(=O)CCc1cc(Cl)ccc1Nc1cnn[nH]1 [Compound I-17] , can you help? 6.00 to 7.00

Looking for the measured pIC50 of NCc1cc(Cl)ccc1Nc1cnn[nH]1 [Compound I-34] , can you help? 4.40 to 6.00

Looking for the measured pIC50 of Cc1cc(Nc2cnn[nH]2)ccc1Cl [Compound I-38] , can you help? 6.00 to 7.00

Looking for the measured pIC50 of Fc1ccc(Nc2cnn[nH]2)cc1Cl [Compound I-13] , can you help? 6.00 to 7.00

Looking for the measured pIC50 of N#Cc1cc(Nc2cn[nH]n2)ccc1Cl [Compound I-44] , can you help? 6.00 to 7.00

Looking for the measured pIC50 of Fc1cccc(Nc2cnn[nH]2)c1 [Compound I-45] , can you help? 6.00 to 7.00
